- ASSAY TARGET: LNX1_1, Q8TBB1
- Sequence (Q8TBB1 261-371): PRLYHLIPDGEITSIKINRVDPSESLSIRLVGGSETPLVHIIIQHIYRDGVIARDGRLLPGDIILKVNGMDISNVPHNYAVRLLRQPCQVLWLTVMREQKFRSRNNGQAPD
- PROTOCOL TEXT: holdup assay
- Parameters: key: below the threshold = too weak to quantify, mostly under pKd 3.1 to 4
- APPLIED CONDITIONS: plain residues with an end cap or a label only (N-terminal biotin on a linker: ado-ado)
ENDPOINT LABEL: pKd
Answers are plain numbers.

BINDER | REPORTED
EEPEERHTEL [CES2, O00748] | 3.8
TETASVCTKV [SLC23A1, Q9UHI7] | 3.73
FVHPILQSAV [PRKCA, P17252] | 4.02

// moving on: another record for pKd
Quick note, pKd for GFGEERESIL [KIDINS220, Q9ULH0] landed at 3.88

Reference source for all entries: paper PMC9482650
